- system_under_test: human notum pectinacetyltransferase (Homo sapiens)
- Construct: made in house; unpurified conditioned medium used
- Sequence (Q6P988 20-496): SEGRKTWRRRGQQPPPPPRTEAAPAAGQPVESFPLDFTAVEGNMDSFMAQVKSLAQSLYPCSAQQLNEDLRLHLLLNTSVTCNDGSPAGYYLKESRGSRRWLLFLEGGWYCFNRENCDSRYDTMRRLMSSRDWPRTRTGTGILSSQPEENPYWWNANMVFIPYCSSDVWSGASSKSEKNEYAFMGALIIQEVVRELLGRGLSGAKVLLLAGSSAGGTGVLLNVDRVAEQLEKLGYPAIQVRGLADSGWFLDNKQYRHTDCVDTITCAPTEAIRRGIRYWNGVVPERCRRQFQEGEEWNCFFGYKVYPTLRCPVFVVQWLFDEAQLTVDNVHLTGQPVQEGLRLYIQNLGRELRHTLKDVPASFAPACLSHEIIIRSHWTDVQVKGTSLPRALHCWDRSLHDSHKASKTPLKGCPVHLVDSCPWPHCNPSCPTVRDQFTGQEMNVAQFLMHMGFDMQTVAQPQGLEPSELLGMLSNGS
- protocol: Reporter assay (CellSensor LEF/TCF-bla FreeStyle 293F cells, Wnt3a and notum conditioned media)
- Assay type: cell-based
- condition_info: class symbols
pEC50: −log10 of the molar value.
property_measured: pEC50

Sample records with pEC50:
# molecule, system_under_test, pEC50
data = [
    ("NC(=O)c1cc2c(s1)-c1ccc(Cl)c(Cl)c1OC2", "human notum pectinacetyltransferase (Homo sapiens)", "> 7.30"),
    ("Cc1ccc2c(c1Cl)CCc1cc(C(N)=O)sc1-2", "human notum pectinacetyltransferase (Homo sapiens)", "> 7.30"),
    ("COc1cccc2c1S(=O)(=O)Cc1cc(C(=O)O)sc1-2", "human notum pectinacetyltransferase (Homo sapiens)", "> 6.00"),
]

Return value of pEC50 for input CCOC(=O)c1cc2c(s1)-c1ccc(C)c([N+](=O)[O-])c1CC2 , no commentary. > 7.30

Retrieve pEC50 measured for N#CC1CCN(C(=O)c2cc3c(s2)-c2ccc(Cl)c(Cl)c2OC3)C1 (stereo not shown) and print it. > 7.30

# return recorded pEC50 for input Cc1cc(C)c2c(c1)-c1sc(C(=O)O)cc1CO2 > 7.30

Entry O=C(O)c1cc2c(s1)-c1cc(F)cc(F)c1OC2 needs its pEC50 filled in; supply it. > 7.30

Look up and report measured pEC50 for this entry: COc1ccc2c(c1F)CCc1cc(C(N)=O)sc1-2 > 7.30
